test: isobaric coefficient of expansion; details: 318.15 K; 35000 kPa; Liquid; DSC with Pressure Shift
measured-endpoint: isobaric coefficient of expansion

Asked: Param item = CCCCCCCCCO ; retrieve measured isobaric coefficient of expansion.
Given back: 0.000732 1/K

Asked: Param item = CCC(O)CC ; retrieve measured isobaric coefficient of expansion.
Given back: 0.000932 1/K

Asked: Param item = CCCCCCCO ; retrieve measured isobaric coefficient of expansion.
Given back: 0.00076 1/K

Asked: Param item = CCO ; retrieve measured isobaric coefficient of expansion.
Given back: 0.000942 1/K

Asked: Param item = CCCC(C)O (stereo unspecified) ; retrieve measured isobaric coefficient of expansion.
Given back: 0.000902 1/K

Asked: Param item = CCCCCCCCO ; retrieve measured isobaric coefficient of expansion.
Given back: 0.000742 1/K

Asked: Param item = CCCCCN ; retrieve measured isobaric coefficient of expansion.
Given back: 0.000989 1/K

Asked: Param item = CCCO ; retrieve measured isobaric coefficient of expansion.
Given back: 0.00088 1/K

Asked: Param item = CCCCCCO ; retrieve measured isobaric coefficient of expansion.
Given back: 0.000778 1/K

Asked: Param item = CCCCCO ; retrieve measured isobaric coefficient of expansion.
Given back: 0.000794 1/K

Asked: Param item = CCCCCCCCCCO ; retrieve measured isobaric coefficient of expansion.
Given back: 0.000726 1/K

----------
Assign isobaric coefficient of expansion to each entry below.
assay: isobaric coefficient of expansion; settings: 298.15 K; 45000 kPa; Liquid; DSC with Pressure Shift

Asked: Param item = CCCCCO ; retrieve measured isobaric coefficient of expansion.
Given back: 0.000741 1/K

Asked: Param item = CCC(O)CC ; retrieve measured isobaric coefficient of expansion.
Given back: 0.000839 1/K

Asked: Param item = CCCCCCCO ; retrieve measured isobaric coefficient of expansion.
Given back: 0.000709 1/K

Asked: Param item = CCCCCCO ; retrieve measured isobaric coefficient of expansion.
Given back: 0.000724 1/K

Asked: Param item = CCCCCCCCCO ; retrieve measured isobaric coefficient of expansion.
Given back: 0.000693 1/K

Asked: Param item = CCCCCCCCO ; retrieve measured isobaric coefficient of expansion.
Given back: 0.000698 1/K

Asked: Param item = CCCCCN ; retrieve measured isobaric coefficient of expansion.
Given back: 0.000944 1/K

Asked: Param item = CCO ; retrieve measured isobaric coefficient of expansion.
Given back: 0.000871 1/K

Asked: Param item = CCCC(C)O (stereo unspecified) ; retrieve measured isobaric coefficient of expansion.
Given back: 0.000799 1/K

Asked: Param item = CCCO ; retrieve measured isobaric coefficient of expansion.
Given back: 0.000811 1/K

Asked: Param item = CCCCCCCCCCO ; retrieve measured isobaric coefficient of expansion.
Given back: 0.00069 1/K

----------
experiment: isobaric coefficient of expansion; details: 288.15 K; 35000 kPa; Liquid; DSC with Pressure Shift
measured-endpoint: isobaric coefficient of expansion

Asked: Param item = CCO ; retrieve measured isobaric coefficient of expansion.
Given back: 0.000899 1/K

Asked: Param item = CCCO ; retrieve measured isobaric coefficient of expansion.
Given back: 0.00083 1/K

Asked: Param item = CCCCCCCCCO ; retrieve measured isobaric coefficient of expansion.
Given back: 0.000716 1/K

Asked: Param item = CCCCCN ; retrieve measured isobaric coefficient of expansion.
Given back: 0.000973 1/K

Asked: Param item = CCC(O)CC ; retrieve measured isobaric coefficient of expansion.
Given back: 0.000837 1/K

Asked: Param item = CCCC(C)O (stereo not given) ; retrieve measured isobaric coefficient of expansion.
Given back: 0.000805 1/K

Asked: Param item = CCCCCCCO ; retrieve measured isobaric coefficient of expansion.
Given back: 0.00073 1/K

Asked: Param item = CCCCCO ; retrieve measured isobaric coefficient of expansion.
Given back: 0.000761 1/K

Asked: Param item = CCCCCCCCO ; retrieve measured isobaric coefficient of expansion.
Given back: 0.000715 1/K

Asked: Param item = CCCCCCO ; retrieve measured isobaric coefficient of expansion.
Given back: 0.000743 1/K

The measurements presented in this section are drawn from the NIST ThermoML archive (doi:10.1016/j.jct.2009.07.002).
